Measured av puncta values are reported for all entries that follow.
biological target: UniProt:P10636; assay: MCE Phenols Library screening, tau biosensor cell seeding assay (AvZ); assay type: cell-based; conditions: average puncta of the two replicates
Sequence (P10636 623-695 limits assumed): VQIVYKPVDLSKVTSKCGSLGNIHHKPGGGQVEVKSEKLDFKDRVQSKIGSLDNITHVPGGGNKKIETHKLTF
Enter a number only.

Field: example entries. Status: answers known.
- O=C1c2cc(CO)cc(O)c2C(=O)c2c(O[C@@H]3O[C@H](CO)[C@@H](O)[C@H](O)[C@H]3O)cccc21 [Aloe-emodin-8-O-?-D-glucopyranoside]: 14937.3
- O=C1c2ccc(O)cc2OCC1c1ccc(O)cc1 (stereo not shown) [Dihydrodaidzein]: 11271.3
- O=C(/C=C/c1ccc(O)c(O)c1)OCCc1ccccc1 [Caffeic acid phenethyl ester]: 11579.1
- COc1c(O)cc2oc(-c3ccccc3)cc(=O)c2c1O [Oroxylin A]: 17171.6
- Cc1c(C)c2c(c(C)c1O)CCC(C)(CCCC(C)CCCC(C)CCCC(C)C)O2 (racemic) [DL-alpha-Tocopherol]: 13701.5
- C[C@@H]1O[C@@H](O[C@@H]2[C@@H](O)[C@H](O)[C@@H](CO)O[C@H]2c2c(O)cc(O)c3c(=O)cc(-c4ccc(O)cc4)oc23)[C@H](O)[C@H](O)[C@H]1O [Vitexin-2"-O-rhamnoside]: 17015.1

Alright, here's another molecule for you.
Can you share its av puncta? I mean this molecule: OCc1ccccc1O [Salicyl alcohol] 14639.5
